Can you tell me inhibition for the items I'm about to list?
experiment-description: inhibitors of TNFa-induced NFkB p65 translocation, primary screen, imaging, HUVEC, MLSMR starter and 10KST1 sets (AID 438);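 note: compound added about 3h40 before a 20 min TNFalpha stimulation; signal is the nuclear over cytoplasmic p65 intensity ratio per well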
conditions: HUVEC TNFa-induced p65 nuclear translocation; at 2 µM, active compounds read high, 0% TNFa-plus-vehicle, 100% no-TNFa wells
Note: unit % is implicit; provide only the numeric part.

Query block: // returns reported inhibition for input `CN(C)/C=C1\N=C(c2ccc(Cl)cc2Cl)OC1=O`
Result block: -4.8

Query block: For `Oc1c(Cl)cc(Cl)cc1CNc1ccc(Br)cn1` then?
Result block: -1.3

Query block: For CC(O)Cn1cnc2c1c(=O)n(C)c(=O)n2C (centres undefined) then?
Result block: -7

Query block: For `CC(=O)Nc1n[nH]c(S(=O)(=O)Cc2ccc(Cl)cc2Cl)n1` then?
Result block: 7.4

Query block: For `Cc1cc(C)n(CC(=O)n2nc(C)cc2C)n1` then?
Result block: -6.2

Query block: For `C=CCn1c(SCC#N)nc2c(c1=O)C(C)(C)Cc1ccccc1-2` then?
Result block: -0.1

Query block: For `Cc1nn(C)cc1CNC(=O)c1ccc(Br)o1` then?
Result block: -14.6

Query block: For `O=C(NCc1cccnc1)/C(=N\O)c1ccccc1` then?
Result block: -4.8

Query block: For CCOC(=O)CSC1=C(C#N)C(c2ccc3c(c2)OCO3)CC(=O)N1 (centres undefined) then?
Result block: -1.1

Query block: For `Cc1csc2nc(CSc3nc4ccccc4o3)cn12` then?
Result block: -8.4

Query block: For O=c1c(F)cn(C2CCCO2)c(=O)n1Cc1ccccc1Cl (centres undefined) then?
Result block: 1.6

Query block: For `CCOc1cccc(-c2nnc3sc(C4CCCCC4)nn23)c1` then?
Result block: 1.1

Query block: For `CCN(CC)S(=O)(=O)c1cccc2c(N(C)C)cccc12` then?
Result block: -2.1

Query block: For `O=CN1CCN(C(=O)CN2C(=O)c3ccccc3C2=O)CC1` then?
Result block: -7.2

Query block: For COc1cccc(/C(O)=C2/C(=O)C(=O)N(CCCN(C)C)C2c2cccc(Cl)c2)c1 (centres undefined) then?
Result block: -13.6

Query block: For COCc1[nH]nc2c1C(c1ccccc1OC)C(C#N)=C(N)O2 (centres undefined) then?
Result block: -4.1

Query block: For `Cc1c([C@H]2[C@@H](CC#N)C2(C)C)c2ccccc2n1C` then?
Result block: -3.8

Query block: For `Cc1cc(OCCN2CCCCC2)nc2ccccc12` then?
Result block: 6.3

Query block: For `COc1ccccc1N=Cc1nc(-c2ccccc2)oc1OC(C)=O` then?
Result block: -8.2

Query block: For COc1ccc(C2/C(=C(/O)c3ccccc3)C(=O)C(=O)N2c2ncccn2)cc1OC (centres undefined) then?
Result block: -0.7

Query block: For CCOC(=O)C1/C(=N\O)CC(C)(O)C(C(=O)OCC)C1c1ccc(N(C)C)cc1 (centres undefined) then?
Result block: -1.5

Query block: For COc1ccc(/C(O)=C2/C(=O)C(=O)N(CCN3CCOCC3)C2c2ccccn2)cc1 (centres undefined) then?
Result block: -13.6

Query block: For `COc1ccccc1N1CCN(C(=O)c2c(C)cc(=O)oc2C)CC1` then?
Result block: -1.5

Query block: For `COc1ccc(CNC(=O)c2c(C)cc(=O)oc2C)cc1OC` then?
Result block: 1.8
